- Target: UniProtKB Q12866
- Sequence (Q12866 whole entry, looked up): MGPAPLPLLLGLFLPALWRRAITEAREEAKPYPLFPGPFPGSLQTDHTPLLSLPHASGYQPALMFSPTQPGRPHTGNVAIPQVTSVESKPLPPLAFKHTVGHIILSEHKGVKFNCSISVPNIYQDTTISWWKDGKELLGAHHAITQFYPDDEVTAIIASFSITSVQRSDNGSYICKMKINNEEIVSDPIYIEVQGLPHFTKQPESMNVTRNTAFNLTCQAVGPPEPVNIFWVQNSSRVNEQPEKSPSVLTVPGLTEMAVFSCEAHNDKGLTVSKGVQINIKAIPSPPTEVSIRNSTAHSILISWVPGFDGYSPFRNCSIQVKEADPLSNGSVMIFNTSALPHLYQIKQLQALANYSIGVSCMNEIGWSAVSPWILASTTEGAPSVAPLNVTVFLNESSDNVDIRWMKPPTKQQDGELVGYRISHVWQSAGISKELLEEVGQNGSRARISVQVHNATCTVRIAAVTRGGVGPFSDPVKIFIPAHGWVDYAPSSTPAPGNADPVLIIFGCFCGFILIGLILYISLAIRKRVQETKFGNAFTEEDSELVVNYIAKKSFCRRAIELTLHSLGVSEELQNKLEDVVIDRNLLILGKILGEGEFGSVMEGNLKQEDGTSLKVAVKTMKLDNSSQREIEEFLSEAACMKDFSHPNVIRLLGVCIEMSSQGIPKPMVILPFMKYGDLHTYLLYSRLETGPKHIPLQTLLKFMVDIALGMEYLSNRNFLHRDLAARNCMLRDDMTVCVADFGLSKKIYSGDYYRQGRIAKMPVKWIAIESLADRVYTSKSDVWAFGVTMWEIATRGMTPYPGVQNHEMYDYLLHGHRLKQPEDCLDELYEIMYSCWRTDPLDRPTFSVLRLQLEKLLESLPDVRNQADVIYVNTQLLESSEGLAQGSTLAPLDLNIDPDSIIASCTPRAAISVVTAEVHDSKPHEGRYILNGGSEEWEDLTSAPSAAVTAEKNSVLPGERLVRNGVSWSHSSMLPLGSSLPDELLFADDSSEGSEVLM
- Protocol Notes: KINOMEscan competition binding
- Study Conditions: compound 10.0 µM
Quick reference for kinase still bound, per cent of control among some compounds
Number only, in %; omit the unit.

Value sought: kinase still bound, per cent of control, system UniProtKB Q12866, item NC(=O)Nc1cc(-c2cccc(F)c2)sc1C(=O)N[C@@H]1CCCNC1 . Result: 0.05

----------
- Target: MKNK2 (human) (UniProt Q9HBH9)
- Sequence (Q9HBH9 whole entry, looked up): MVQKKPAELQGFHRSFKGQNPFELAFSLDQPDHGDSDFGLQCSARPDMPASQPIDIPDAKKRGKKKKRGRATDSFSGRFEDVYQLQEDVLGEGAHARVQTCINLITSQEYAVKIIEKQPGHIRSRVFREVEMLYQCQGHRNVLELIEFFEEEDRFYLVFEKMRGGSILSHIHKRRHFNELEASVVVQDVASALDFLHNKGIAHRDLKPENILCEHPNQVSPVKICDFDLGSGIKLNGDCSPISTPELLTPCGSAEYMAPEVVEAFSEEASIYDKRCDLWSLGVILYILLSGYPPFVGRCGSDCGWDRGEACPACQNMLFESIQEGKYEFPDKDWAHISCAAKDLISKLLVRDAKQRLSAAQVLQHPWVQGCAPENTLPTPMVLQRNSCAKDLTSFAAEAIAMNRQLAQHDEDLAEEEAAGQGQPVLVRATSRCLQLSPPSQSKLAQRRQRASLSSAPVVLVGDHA
- Protocol Notes: KINOMEscan competition binding
- Study Conditions: compound 10.0 µM
Reported kinase still bound, per cent of control values follow for various molecules
// return numeric value only (unit: %, not printed)

Worked cases, answers included:
{"columns": ["Smiles Code", "Value Reported"],
 "data": [
  ["CCN(CC)CCCCNc1ncc2cc(-c3cc(OC)cc(OC)c3)c(NC(=O)NC(C)(C)C)nc2n1", 100],
  ["COc1cc2ncnc(-n3nc(-c4ccccn4)nc3N)c2cc1OC", 8.4],
  ["C=CC(=O)Nc1ccc(CN(C(=O)Nc2c(Cl)c(OC)cc(OC)c2Cl)c2cc(Nc3ccc(N4CCN(C)CC4)cc3)ncn2)cc1", 100],
  ["COc1ccc(N(C(=O)Oc2c(C)cccc2C)c2ccnc(Nc3ccc(N4CCN(C)CC4)cc3)n2)c(OC)c1", 90],
  ["CN(C)C/C=C/C(=O)Nc1ccc(C(=O)Nc2cccc(Nc3nccc(-c4cccnc4)n3)c2)cc1", 7.3]
]}

The observed kinase still bound, per cent of control for C=CC(=O)Nc1cc(-n2c(=O)ccc3cnc4ccc(-c5cn[nH]c5)cc4c32)ccc1C when tested with MKNK2 (human) (UniProt Q9HBH9) stands at 0.15

Known value: MKNK2 (human) (UniProt Q9HBH9) kinase still bound, per cent of control of the molecule O=c1cc(N2CCOCC2)oc2c(-c3cccc4c3sc3ccccc34)cccc12 equals 87

Lab entry: MKNK2 (human) (UniProt Q9HBH9) assay, molecule N#CCNC(=O)c1ccc(-c2ccnc(Nc3ccc(N4CCOCC4)cc3)n2)cc1 , kinase still bound, per cent of control = 1.2

GET /values?item= CCN(CC)CCCCNc1ncc2c(n1)N(C)C(=O)N(c1c(Cl)c(OC)cc(OC)c1Cl)C2 &system= MKNK2 (human) (UniProt Q9HBH9) returns kinase still bound, per cent of control: 100

----------
- Target: PRKD2 (human) (UniProt Q9BZL6)
- Sequence (Q9BZL6 whole entry, looked up): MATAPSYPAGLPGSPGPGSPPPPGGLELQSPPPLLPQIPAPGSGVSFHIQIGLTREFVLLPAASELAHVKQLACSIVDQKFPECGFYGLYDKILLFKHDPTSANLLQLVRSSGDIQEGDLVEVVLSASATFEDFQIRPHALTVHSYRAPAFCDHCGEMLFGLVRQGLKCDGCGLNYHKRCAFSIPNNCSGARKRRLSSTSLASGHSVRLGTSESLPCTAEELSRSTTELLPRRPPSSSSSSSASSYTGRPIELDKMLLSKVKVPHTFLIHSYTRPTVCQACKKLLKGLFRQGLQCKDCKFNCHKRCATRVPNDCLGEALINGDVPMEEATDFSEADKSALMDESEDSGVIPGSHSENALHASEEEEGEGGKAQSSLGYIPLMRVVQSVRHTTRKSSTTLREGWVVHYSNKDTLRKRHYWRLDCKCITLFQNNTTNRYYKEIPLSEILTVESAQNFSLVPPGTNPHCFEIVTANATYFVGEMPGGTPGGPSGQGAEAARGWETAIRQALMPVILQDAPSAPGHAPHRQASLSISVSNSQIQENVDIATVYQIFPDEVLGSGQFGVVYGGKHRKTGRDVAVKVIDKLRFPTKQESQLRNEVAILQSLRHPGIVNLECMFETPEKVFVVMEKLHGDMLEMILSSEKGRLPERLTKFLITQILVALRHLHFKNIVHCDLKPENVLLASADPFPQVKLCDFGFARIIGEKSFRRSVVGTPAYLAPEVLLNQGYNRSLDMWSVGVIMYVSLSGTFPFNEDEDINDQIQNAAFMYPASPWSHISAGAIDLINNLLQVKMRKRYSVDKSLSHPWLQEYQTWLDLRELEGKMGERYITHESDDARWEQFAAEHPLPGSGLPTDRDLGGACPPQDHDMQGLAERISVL
- Protocol Notes: KINOMEscan competition binding
- Study Conditions: compound 10.0 µM
Readout Type: kinase still bound, per cent of control (%)
Numbers only; they are read as %.

{"columns": ["Smiles Code", "kinase still bound, per cent of control, %"],
 "data": [
  ["O=c1cc(N2CCOCC2)oc2c(-c3cccc4c3sc3ccccc34)cccc12", 100]
]}

molecule C=CC(=O)Nc1cc(-n2c(=O)ccc3cnc4ccc(-c5cn[nH]c5)cc4c32)ccc1C , kinase still bound, per cent of control observed: 89

kinase still bound, per cent of control reading for CCN(CC)CCCCNc1ncc2cc(-c3cc(OC)cc(OC)c3)c(NC(=O)NC(C)(C)C)nc2n1 : 100

Lab note: measured kinase still bound, per cent of control of Cc1n[nH]c2ccc(-c3cncc(OC[C@@H](N)Cc4c[nH]c5ccccc45)c3)cc12 was 0

Data point: CN(C)C/C=C/C(=O)Nc1ccc(C(=O)Nc2cccc(Nc3nccc(-c4cccnc4)n3)c2)cc1 ; kinase still bound, per cent of control = 100

Data provenance: the kinase profiling compilation of Christmann-Franck et al. (2016)
